- Tested on: Fusarium proliferatum
- measurementNotes: Production of fumonisin FB1 by Fusarium proliferatum (microtitre plates; FB1 by HPLC-MS/MS, growth by OD620)
- Assay type: cell-based
- conditionDescription: Fusarium proliferatum, 144 h; growth, OD620 at the beginning and after 6 days; read-out: pI50 growth (converted)
propertyLabel: IC50 (µM)
One number for each entry, in µM.

Value sought for every listed compound: IC50.
1. COC(C)c1cccc(Nc2ncc(Br)c(NC3CCC3)n2)c1 (centres unmarked)
2. COC(C)(C)c1cccc(Nc2ncc(Cl)c(NC3CC3)n2)c1
3. COCCc1cccc(Nc2ncc(Cl)c(NC3CC3)n2)c1
4. CCS(=O)(=O)c1cccc(Nc2ncc(Cl)c(NC3CCC3)n2)c1

Reply:
1: 3.98; 2: 3.16; 3: 1.58; 4: 20
